Molecular target: T1, PUF4 RNA-binding domain (Saccharomyces cerevisiae, UniProt P25339 537-888)
T1 sequence: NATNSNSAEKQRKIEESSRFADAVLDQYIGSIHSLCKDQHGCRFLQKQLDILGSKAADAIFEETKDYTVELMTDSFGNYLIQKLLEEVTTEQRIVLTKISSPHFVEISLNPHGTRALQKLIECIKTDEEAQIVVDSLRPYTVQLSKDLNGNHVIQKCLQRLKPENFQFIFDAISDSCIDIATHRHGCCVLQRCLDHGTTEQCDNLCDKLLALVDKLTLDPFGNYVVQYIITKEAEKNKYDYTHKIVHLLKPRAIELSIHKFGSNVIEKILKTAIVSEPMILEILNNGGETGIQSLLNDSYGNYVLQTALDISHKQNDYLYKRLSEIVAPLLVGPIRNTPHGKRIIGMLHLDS
Test: Mg; RNA-MaP; 20 mM Na-HEPES pH 7.4, 30 mM KOAc, 0.75 mM MgCl2, 0.1% Tween-20, 5% glycerol, 0.1 mg/mL BSA, 2 mM DTT; 25 C; 0.0125-409.6 nM protein
Conditions: tags: N-His6-TEV cleaved; C-SNAP kept, Cy3B-labelled; label: tethered on chip by stalled RNA polymerase
parameter measured: log10 Kd (log10 of the value in nM)
Friendly reminder: values = log10 of Kd, unit nM.

Task: For the binder shown here, UCUCUUCUCCCUUUGUAUAUAUAUCUCUU (ssRNA) [Ie_S1_P3E.2_K3.1_C3.2_[+-1CCCTT]_H3.1_A3.1_F3.1_T3.2] , give the reported log10 Kd.
Output: 0.80

New cases:
Task: Would you mind telling me what log10 Kd value was observed for Ib_S4_P3E.1_K3.1_C3.1_H3.1_[G2A]_A3.1_[T5A]_F3.1_T3.1 (ssRNA) RNA: UUUGACAACUGAUCGUUCUUUCUUAUAAAUAUUCUUUCUCGAUCAGUUGUCUUU ?
Output: 3.32

Task: Also need UCUCUUUGUAUCCCUAUUAUCUCUU (ssRNA) [Ie_S1_P5E.1_K5.1_C5.1_H5.1_A5.1_[+5CCC]_F5.1_T5.1] , thanks.
Output: 1.30

Task: Same read-out for UCUCUUUGUACCAGCUUCUCUU (ssRNA) [Ic_S1_P5E.1_K5.1_C5.1_H5.1_A5.1_[T5C]_[T6C]_F5.1_[T8G]_[T9C]_[A10T]_T5.1] ?
Output: 2.87

Task: Request: Id_ii_S2_P4E.4_K4.3_C4.2_[C-2A]_H4.3_A4.1_F4.1_T4.2_[G10C]_[T11G] (ssRNA) RNA: UUUGAUUAAUAUGAUAUCGUUCUUUCUAUACACUAUUACGUUCUUUCUCGAUAUCAUAUUAAUCUUU
Output: 1.68

Task: Then ACAAACCUUUUCCGUAUAUAUAACAAAC (ssRNA) [Ie_S3_P3E.2_K3.1_C3.2_H3.1_[+1TTCC]_A3.1_F3.1_T3.2] ?
Output: 3.08

Task: And for Ic_S2_P5E.1_K5.1_C5.1_H5.1_A5.1_[T5C]_[T6A]_F5.1_[A10C]_T5.1 (ssRNA) RNA: UUUGAUUAAUAUGAUAUCGUUCUUUCUUGUACAAUUCUUCUUUCUCGAUAUCAUAUUAAUCUUU ?
Output: 0.80

Task: What about Ic_S4_P5E.1_K5.1_C5.1_H5.1_A5.1_[T6A]_[A7C]_F5.1_[T8C]_[T9C]_[A10T]_T5.1 (ssRNA) RNA: UUUGACAACUGAUCGUUCUUUCUUGUAUACCCUUUCUUUCUCGAUCAGUUGUCUUU ?
Output: 1.56

Task: Next binder up: Ic_S4_P4E.1_K4.1_C4.1_H4.1_A4.1_[T5G]_[A6T]_[T7C]_F4.1_[T8C]_[A9C]_T4.1 (ssRNA) RNA: UUUGACAACUGAUCGUUCUUUCUUGUAGUCCCUUCUUUCUCGAUCAGUUGUCUUU
Output: 2.71

Task: Proceed to UCUCUUACUAUAUAUACAUCUCUU (ssRNA) [Id_ii_S1_P3E.3_K3.2_C3.2_[C-2A]_[T-1C]_H3.2_A3.1_F3.1_T3.2_[T9C]]
Output: 3.11

Task: Next up: UCUCUUAUUGUAUAUUAAAUCUCUU (ssRNA) [Id_ii_S1_P4E.2_K4.1_C4.2_[C-2A]_H4.1_A4.1_F4.1_T4.2_[G10A]_[T11A]]
Output: -0.18

Task: Next up: UCUCUUACUAUAUAUUAUUUCUCUU (ssRNA) [Id_ii_S1_P4E.3_K4.2_C4.2_[C-2A]_[T-1C]_H4.2_A4.1_F4.1_T4.2_[G10T]]
Output: 1.41
